# Test details: reduction of Shn3 3'UTR firefly luciferase signal, primary screen, Schnurri-3 inhibitor project, cell-based, Clone20 osteoblasts, set 2 (AID 588674);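 note: 0% = median of neutral control wells and 100% = pilot-screen positive control compound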
# Condition parameters: Clone20 osteoblast Shn3 3'UTR firefly luciferase, 24 h; at 12.5 µM
The campaign covered roughly 360,000 compounds. About 1,800 (0.5%) were called active.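 Rule for the calls: active = mean inhibition of at least 75% with every replicate also reaching 75%; inconclusive = mean inhibition at least 75% but some replicate below; inactive = mean inhibition below 75%.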 Only a selection was taken, and actives are over-represented in it overall.
Outcomes: active, inactive

{"columns": ["Compound", "Class assignment"],
 "data": [
  ["O=C(CCS(=O)(=O)c1ccc2c(c1)NC(=O)CS2)NCc1ccccc1Cl", "inactive"],
  ["O=C(O)Cc1ccc(NCc2ccccc2Cl)cc1", "inactive"],
  ["COc1ccc(NC(=O)/C(Cl)=C(/Cl)S(=O)Cc2ccc(C)cc2)cn1 (stereo not given)", "active"],
  ["CCCOC(=O)c1[nH]c2c(c1C)C(=O)CC(c1cc(OC)c(OC)c(OC)c1)C2 (stereo not given)", "active"],
  ["CN(CCO)S(=O)(=O)c1ccc2c(c1)C(=O)c1cc(S(=O)(=O)N(C)CCO)ccc1-2", "inactive"],
  ["CC12CCC(=O)C=C1CCC1C2C(O)CC2(C)C1CCC2(O)C(O)CO (stereo not given)", "inactive"],
  ["COc1ccc(NC(=O)CN2C(=O)NC(C)(c3ccccc3)C2=O)cn1 (stereo not given)", "inactive"],
  ["O=S1(=O)CC(N2CCN(c3ccccn3)CC2)CN1Cc1ccc(F)cc1 (stereo not given)", "inactive"],
  ["COC(=O)C1C(=O)c2c([nH]c(C(=O)OCCSC)c2C)CC1C (stereo not given)", "inactive"],
  ["CCCOC(=O)c1[nH]c2c(c1C)C(=O)CC(c1cccs1)C2 (stereo not given)", "inactive"]
]}

* * *

# Test details: reduction of Shn3 3'UTR firefly luciferase signal, primary screen, Schnurri-3 inhibitor project, cell-based, Clone20 osteoblasts, set 2 (AID 588674);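 note: 0% = median of neutral control wells and 100% = pilot-screen positive control compound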
# Condition parameters: Clone20 osteoblast Shn3 3'UTR firefly luciferase, 24 h; at 12.5 µM; hits give high values
Screen size: about 360,000 compounds; about 1,800 (0.5%) were called active. The entries come from a sample that favours actives as a whole.
inhibition overview

{"columns": ["Molecule", "inhibition, %"],
 "data": [
  ["CCOC(=O)c1cc(-c2ccccc2C)n(Cc2cc(C)no2)n1", 4.57],
  ["CN(C)C(=O)CCc1ccc2c3c([nH]c2c1)[C@]1(C)[C@@H](C(=O)N2CCOCC2)C[C@H](CC(=O)NCCc2ccccn2)C(=O)N1CC3", -11.8],
  ["Nc1ncnc2c1ncn2[C@@H]1O[C@H](C(=O)NCC(F)(F)F)[C@@H](O)[C@H]1O", 2.47],
  ["CC(c1ccco1)N(C(=O)c1ccc(S(=O)(=O)N2CCCCC2)cc1)c1ccccn1 (centres undefined)", 13.4],
  ["Clc1ccc(Cl)c(Oc2ccc(Oc3nc(Cl)ccc3Cl)cc2)n1", -2.29],
  ["O=C(N/N=C\\c1ccc(Br)cc1)c1ccc(Cn2cccn2)o1", -11.5],
  ["CCOc1ccc(C(CCc2ccccc2)NC(=O)c2ccc(OC)c(OC)c2)cc1OCC (centres undefined)", 20],
  ["O=C(NNc1ccccc1Cl)C(O)(c1cccc(C(F)(F)F)c1)c1cccc(C(F)(F)F)c1", 20.3],
  ["O=C1/C(=C\\c2ccc([N+](=O)[O-])cc2)CS(=O)(=O)C/C1=C/c1ccc([N+](=O)[O-])cc1", 96.5]
]}
